# ASSAY_OVERVIEW: qHTS of pediatric cancer cell lines to identify multiple opportunities for drug repurposing: Primary screen for control Hh wild type fibroblast cells (AID 1347106);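 further: a drop in luminescence marks cytotoxicity and a rise apparent proliferation; nearly all actives have a fitted effect of over 55% in size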
# COND: Hh wild-type fibroblast viability, CellTiter-Glo luminescence, 48 h; series mostly up to 46 µM
Records with an inconclusive call do not appear. Activity calls are given as the source filed them. The call rests on the fitted dose curve; in most records, active means well fitted cell-killing curve with a large enough effect; inconclusive means small, poorly fitted or top-dose-only effect; inactive means flat fitted curve, though single readings scatter.
PROPERTY_LABEL: activity change, negative = cytotoxic

>  <COMPOUND>
CC(=O)N(c1onc(C)c1C)S(=O)(=O)c1ccc(N)cc1

>  <OBSERVED_RESULT>
inactive

$$$$
>  <COMPOUND>
CCN1C(=O)c2ccccc2C1Nc1ccc(OCCN2CCCCC2)cc1 (stereo unspecified)

>  <OBSERVED_RESULT>
inactive

$$$$
>  <COMPOUND>
CCC(C(=O)NC(=O)NC(C)=O)c1ccccc1 (stereo unspecified)

>  <OBSERVED_RESULT>
inactive

$$$$
>  <COMPOUND>
O=c1[nH]c2ccccc2c(=O)n1CCCl

>  <OBSERVED_RESULT>
inactive

$$$$
>  <COMPOUND>
C[C@H]1C[C@@H]2[C@H]([C@@H](O)C[C@@]3(C)[C@H]2CC[C@]3(O)C(=O)CO)[C@@]2(C)C=CC(=O)C=C12

>  <OBSERVED_RESULT>
inactive

$$$$
>  <COMPOUND>
C[C@H](CN1CCCC1)C(=O)c1ccc(C(F)(F)F)cc1

>  <OBSERVED_RESULT>
inactive

$$$$
>  <COMPOUND>
CCCCCCCCCCCCCCCCCCN(C)C

>  <OBSERVED_RESULT>
inactive

$$$$
>  <COMPOUND>
Cc1cc2nc3ccc(=[N+](C)C)cc-3sc2cc1N

>  <OBSERVED_RESULT>
inactive

$$$$
>  <COMPOUND>
O=C(O)CCC(=O)OC[C@@H](NC(=O)C(Cl)Cl)[C@H](O)c1ccc([N+](=O)[O-])cc1

>  <OBSERVED_RESULT>
inactive

$$$$
>  <COMPOUND>
Cc1ccccc1C(=O)N1CC/C(=N\OS(=O)(=O)O)c2ccc(Cl)cc21

>  <OBSERVED_RESULT>
inactive

$$$$
>  <COMPOUND>
Nc1c(NC/C=C\COc2cc(CN3CCCCC3)ccn2)c(=O)c1=O

>  <OBSERVED_RESULT>
inactive

$$$$
